# tested system: PI3K β (Homo sapiens (Human), UniProt P42338)
# Sequence (P42338 whole entry): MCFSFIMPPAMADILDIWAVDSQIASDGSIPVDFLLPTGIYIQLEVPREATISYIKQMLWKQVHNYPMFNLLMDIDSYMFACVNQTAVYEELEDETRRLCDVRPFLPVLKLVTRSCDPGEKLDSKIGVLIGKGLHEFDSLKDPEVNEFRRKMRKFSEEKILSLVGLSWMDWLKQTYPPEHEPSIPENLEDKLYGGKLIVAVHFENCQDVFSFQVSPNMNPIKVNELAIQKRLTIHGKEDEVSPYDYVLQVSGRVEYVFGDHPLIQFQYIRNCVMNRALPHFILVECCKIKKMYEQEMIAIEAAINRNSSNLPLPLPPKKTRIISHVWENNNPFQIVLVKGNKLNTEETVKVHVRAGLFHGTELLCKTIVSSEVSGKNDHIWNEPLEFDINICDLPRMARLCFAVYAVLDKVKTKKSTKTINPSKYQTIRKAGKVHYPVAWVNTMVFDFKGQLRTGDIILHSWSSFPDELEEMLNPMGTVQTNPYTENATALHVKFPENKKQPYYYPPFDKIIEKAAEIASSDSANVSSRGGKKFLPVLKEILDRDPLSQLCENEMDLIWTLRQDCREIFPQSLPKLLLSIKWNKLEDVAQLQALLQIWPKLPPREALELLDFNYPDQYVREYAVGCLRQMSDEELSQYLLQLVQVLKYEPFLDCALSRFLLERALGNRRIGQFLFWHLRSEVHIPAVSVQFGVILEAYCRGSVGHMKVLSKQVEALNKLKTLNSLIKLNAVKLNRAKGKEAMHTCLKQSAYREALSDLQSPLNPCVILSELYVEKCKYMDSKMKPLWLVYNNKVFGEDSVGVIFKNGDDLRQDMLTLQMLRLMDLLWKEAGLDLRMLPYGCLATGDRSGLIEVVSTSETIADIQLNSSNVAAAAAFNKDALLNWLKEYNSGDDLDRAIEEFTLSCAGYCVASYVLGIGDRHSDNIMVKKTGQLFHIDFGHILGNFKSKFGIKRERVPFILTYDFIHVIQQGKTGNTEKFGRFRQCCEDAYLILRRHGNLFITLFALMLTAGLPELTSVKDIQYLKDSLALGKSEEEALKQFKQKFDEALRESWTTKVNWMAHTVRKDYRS
# Sequence (P27986 whole entry partner): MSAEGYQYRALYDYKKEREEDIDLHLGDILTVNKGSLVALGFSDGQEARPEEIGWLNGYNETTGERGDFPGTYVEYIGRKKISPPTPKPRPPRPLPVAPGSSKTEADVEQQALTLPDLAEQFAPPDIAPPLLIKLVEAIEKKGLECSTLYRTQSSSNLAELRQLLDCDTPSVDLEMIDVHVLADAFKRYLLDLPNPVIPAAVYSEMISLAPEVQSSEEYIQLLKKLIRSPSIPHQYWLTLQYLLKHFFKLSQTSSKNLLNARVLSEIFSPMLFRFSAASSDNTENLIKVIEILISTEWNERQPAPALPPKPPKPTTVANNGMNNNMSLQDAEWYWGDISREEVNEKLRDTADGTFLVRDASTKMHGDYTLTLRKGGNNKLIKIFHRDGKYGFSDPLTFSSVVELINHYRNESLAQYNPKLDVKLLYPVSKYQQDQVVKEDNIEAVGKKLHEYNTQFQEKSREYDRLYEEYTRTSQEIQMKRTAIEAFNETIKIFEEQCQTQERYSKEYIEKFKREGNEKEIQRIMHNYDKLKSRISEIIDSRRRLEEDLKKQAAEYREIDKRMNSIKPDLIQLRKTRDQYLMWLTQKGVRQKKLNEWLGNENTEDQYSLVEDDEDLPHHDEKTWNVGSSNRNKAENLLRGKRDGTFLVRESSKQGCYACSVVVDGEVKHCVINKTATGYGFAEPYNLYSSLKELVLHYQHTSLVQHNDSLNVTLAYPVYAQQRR
measurement name: IC50

| compound | assay result |
| --- | --- |
| Nc1nc2cc(-c3ccc4ncc(C(=O)N5CCC(O)CC5)n4c3)ccc2o1 | > 10 µM |
| Cc1cc(-c2ccc3nc(N)oc3c2)cn2c(C(=O)N3CCOCC3)cnc12 | < 1 µM |
| COc1ncc(-c2ccc3ncn(C4CCN(C)CC4)c(=O)c3c2)cc1NS(=O)(=O)c1ccccc1 | < 0.1 µM |
| CN1CCN(C(=O)c2cnc3ccc(-c4ccc5nc(N)oc5c4)cn23)CC1 | < 10 µM |
| COc1ccc(-c2ccc3ncc(C(=O)N4CCOCC4)n3c2)cc1NS(C)(=O)=O | > 10 µM |
| Nc1nc2cc(-c3cc4nccc(-c5ccncc5)c4s3)ccc2o1 | > 10 µM |
| CC(=O)N1CCC(N(C)c2ncnc3ccc(-c4ccc5oc(N)nc5c4)cc23)CC1 | < 1 µM |
| C[C@@H]1CN(C(=O)C2CN(c3cnc4ccc(-c5ccc6oc(N)nc6c5)cc4n3)C2)CCN1 | < 10 µM |
| Nc1nc2cc(-c3ccc4ncc(N5CC(N6CCN(CC7CC7)CC6)C5)nc4c3)ccc2o1 | < 10 µM |
| Nc1nc2cc(-c3ccc4ncc(N5CCC(n6ccnc6)CC5)nc4c3)ccc2o1 | < 1 µM |
| CCOC(=O)N1CCN(c2cnc3ccc(-c4ccc5oc(N)nc5c4)cc3n2)CC1 | < 10 µM |
| Cc1c(-c2ccc3oc(N)nc3c2)ccc2ncc(C(=O)N3CCOCC3)n12 | > 10 µM |
| Nc1nc2cc(-c3ccc4ncc(C(=O)N5CC(N6CCOCC6)C5)n4c3)ccc2o1 | < 10 µM |
| CC(C)n1cnc2ccc(-c3ccc4oc(N)nc4c3)cc2c1=O | > 10 µM |
| Nc1nc2ccc(-c3cc(F)c4ncc(C(=O)N5CCOCC5)n4c3)cc2o1 | > 10 µM |
| CC(=O)N1CCC(Nc2ncnc3ccc(-c4ccc5oc(N)nc5c4)cc23)CC1 | < 10 µM |
| Cn1c(N2CCOCC2)nc2cc(-c3ccc4oc(N)nc4c3)ccc2c1=O | > 10 µM |
| Cc1c(-c2ccc3oc(N)nc3c2)ccc2ncc(N3CC(N4CCNCC4)C3)nc12 | > 10 µM |
| Nc1nc2cc(-c3ccn4ncc(C(=O)N5CCCC5)c4c3)ccc2o1 | < 10 µM |
| CC(C)N1CCN(c2cnc3ccc(-c4ccc5oc(N)nc5c4)cc3n2)C(=O)C1 | > 10 µM |
| CN1CCN(C(=O)C2CN(c3cnc4ccc(-c5ccc6oc(N)nc6c5)cc4n3)C2)CC1 [drawing 360] | < 1 µM |
| CS(=O)(=O)Nc1cc(-c2ccc3ncc(C(=O)N4CCOCC4)n3c2)cnc1Cl | < 0.1 µM |
| CN1CCN(C2CN(C(=O)c3cnc4ccc(-c5ccc6oc(N)nc6c5)cn34)C2)CC1 | > 10 µM |
| COc1ncc(-c2ccc3ncc(C(=O)N4CCOCC4)n3c2)c2cn[nH]c12 | > 10 µM |
| CS(=O)(=O)N1CCC(Nc2ncnc3ccc(-c4ccc5oc(N)nc5c4)cc23)CC1 | < 1 µM |
| C[C@@H]1CN(C2CN(c3cnc4ccc(-c5ccc6oc(N)nc6c5)nc4n3)C2)CCN1 | > 10 µM |
